Assay: Half life in Wistar-Han rat at 0.5 mg/kg, iv or 1 mg/kg, po
Format: ADME, organism-based
Conditions: in vivo
MEASURED QUANTITY: half-life (h)

{"COMPOUND": "CCn1c(-c2cnc(C)nc2)nc2c(-c3ccc4c(c3)[C@@]3(CCCN3C(=O)C3CC3)C(=O)N4)ncnc21", "MEASURED QUANTITY": "half-life", "UNITS TEXT": "h", "MEASURED NUMBER": 0.5}
{"COMPOUND": "Cc1ncc(-c2nc3c(-c4ccc5c(c4)[C@@]4(CCCN4C(=O)C4CC4)C(=O)N5C)ncnc3n2C)cn1", "MEASURED QUANTITY": "half-life", "UNITS TEXT": "h", "MEASURED NUMBER": 1.4}
{"COMPOUND": "CCn1c(-c2cnc(C)nc2)nc2c(-c3cnc4c(c3)[C@](C)(N[C@H]3CCOC3)C(=O)N4)ncnc21", "MEASURED QUANTITY": "half-life", "UNITS TEXT": "h", "MEASURED NUMBER": 3}
{"COMPOUND": "CCn1c(-c2cnc(C)nc2)nc2c(-c3ccc4c(c3)[C@@]3(CCCN3C(C)C)C(=O)N4)ncnc21", "MEASURED QUANTITY": "half-life", "UNITS TEXT": "h", "MEASURED NUMBER": 0.6}
{"COMPOUND": "CCn1c(-c2cnc(C)nc2)nc2c(-c3ccc4c(c3)[C@](C)(NCC(C)(C)F)C(=O)N4)ncnc21", "MEASURED QUANTITY": "half-life", "UNITS TEXT": "h", "MEASURED NUMBER": 1.6}
{"COMPOUND": "CCn1c(-c2cnc(C)nc2)nc2c(-c3ccc4c(c3)[C@](C)(NCC(C)(F)F)C(=O)N4)ncnc21", "MEASURED QUANTITY": "half-life", "UNITS TEXT": "h", "MEASURED NUMBER": 1.9}
{"COMPOUND": "CCn1c(-c2cnc(C)nc2)nc2c(-c3ccc4c(c3)[C@](C)(N3CC(C)(OC)C3)C(=O)N4)ncnc21", "MEASURED QUANTITY": "half-life", "UNITS TEXT": "h", "MEASURED NUMBER": 0.6}
{"COMPOUND": "CCn1c(-c2cnc(C)nc2)nc2c(-c3ccc4c(c3)[C@](C)(NC3CCC3)C(=O)N4)ncnc21", "MEASURED QUANTITY": "half-life", "UNITS TEXT": "h", "MEASURED NUMBER": 0.6}
{"COMPOUND": "CCn1c(-c2cnc(C)nc2)nc2c(-c3ccc4c(c3)[C@](C)(N[C@H]3CCOC3)C(=O)N4)ncnc21", "MEASURED QUANTITY": "half-life", "UNITS TEXT": "h", "MEASURED NUMBER": 1.4}
{"COMPOUND": "CCn1c(-c2cnc(C)nc2)nc2c(-c3cnc4c(c3)[C@](C)(N3CC(C)(OC)C3)C(=O)N4)ncnc21", "MEASURED QUANTITY": "half-life", "UNITS TEXT": "h", "MEASURED NUMBER": 2.8}
{"COMPOUND": "Cc1ncc(-c2nc3c(-c4ccc5c(c4)[C@@]4(CCCN4C(=O)C4CC4)C(=O)N5)ncnc3n2C)cn1", "MEASURED QUANTITY": "half-life", "UNITS TEXT": "h", "MEASURED NUMBER": 0.6}
{"COMPOUND": "CCn1c(-c2cnc(C)nc2)nc2c(-c3cnc4c(c3)[C@](C)(NCC(C)(C)F)C(=O)N4)ncnc21", "MEASURED QUANTITY": "half-life", "UNITS TEXT": "h", "MEASURED NUMBER": 2.5}
{"COMPOUND": "CCn1c(-c2cnc(C)nc2)nc2c(-c3ccc4c(c3)[C@@]3(CCCN3C(=O)C3CC3)C(=O)N4C)ncnc21", "MEASURED QUANTITY": "half-life", "UNITS TEXT": "h", "MEASURED NUMBER": 1.1}
{"COMPOUND": "CCn1c(-c2cnc(C)nc2)nc2c(-c3ccc4c(c3)[C@](C)(CC3CCO3)C(=O)N4)ncnc21 (stereo partly specified)", "MEASURED QUANTITY": "half-life", "UNITS TEXT": "h", "MEASURED NUMBER": 1}
{"COMPOUND": "CCn1c(-c2cnc(C)nc2)nc2c(-c3cnc4c(c3)[C@](C)(NC3CCC3)C(=O)N4)ncnc21", "MEASURED QUANTITY": "half-life", "UNITS TEXT": "h", "MEASURED NUMBER": 3}
{"COMPOUND": "Cc1ncc(-c2nc3c(-c4cnc5c(c4)[C@](C)(N[C@H]4CCOC4)C(=O)N5)ncnc3n2C)cn1", "MEASURED QUANTITY": "half-life", "UNITS TEXT": "h", "MEASURED NUMBER": 1.1}
